Origin of values: the supplement of paper PMC3334620

Target: Ste12 (UniProt P13574)
Sequence (P13574 whole entry): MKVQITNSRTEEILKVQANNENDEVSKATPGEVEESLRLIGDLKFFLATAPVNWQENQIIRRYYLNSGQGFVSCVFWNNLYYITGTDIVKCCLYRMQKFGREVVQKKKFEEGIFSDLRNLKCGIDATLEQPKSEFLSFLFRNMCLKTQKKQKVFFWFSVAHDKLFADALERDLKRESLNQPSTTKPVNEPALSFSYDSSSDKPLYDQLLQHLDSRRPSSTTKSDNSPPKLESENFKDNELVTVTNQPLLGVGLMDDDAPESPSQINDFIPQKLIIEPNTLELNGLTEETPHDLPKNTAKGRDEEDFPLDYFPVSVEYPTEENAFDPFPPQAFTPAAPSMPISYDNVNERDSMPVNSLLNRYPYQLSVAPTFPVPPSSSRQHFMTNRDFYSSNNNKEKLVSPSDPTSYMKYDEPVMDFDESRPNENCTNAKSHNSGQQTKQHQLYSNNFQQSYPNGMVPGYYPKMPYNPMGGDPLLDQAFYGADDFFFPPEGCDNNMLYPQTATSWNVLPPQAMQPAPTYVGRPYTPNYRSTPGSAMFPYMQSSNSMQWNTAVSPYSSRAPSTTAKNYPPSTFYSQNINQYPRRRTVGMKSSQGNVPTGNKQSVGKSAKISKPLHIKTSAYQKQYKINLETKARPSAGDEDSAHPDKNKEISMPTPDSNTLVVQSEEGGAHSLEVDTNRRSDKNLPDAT
Assay: PBM E-score (8-mer binding enrichment) (E-score (-0.5 to 0.5)); higher = stronger / more preferred TF binding
Conditions: protein concentration: 200 nM; construct: GST-DNA-binding domain
Over roughly 33,000 sequences, “E-score (-0.5 to 0.5)” has its median near -0.01; the highest 2% begin near 0.26. The full list was thinned out, with the highest values kept by preference.

- residues: "AAGCAGCC"
  PBM E-score: -0.078
- residues: "TCACCAAA"
  PBM E-score: 0.177
- residues: "GGTGAAAC"
  PBM E-score: 0.463
- residues: "AACCAATA"
  PBM E-score: 0.195
- residues: "GAAAAAGA"
  PBM E-score: 0.241
- residues: "TCCTAAGA"
  PBM E-score: -0.00559
- residues: "CTTGAAAG"
  PBM E-score: -0.0999
- residues: "GTTTCAGA"
  PBM E-score: 0.484
- residues: "GACTACTC"
  PBM E-score: -0.0788
- residues: "ATTTCAAA"
  PBM E-score: 0.272
- residues: "ACCTGCAA"
  PBM E-score: -0.0499
- residues: "ATCCAAGA"
  PBM E-score: 0.136
- residues: "ATTGAAAG"
  PBM E-score: 0.0623
- residues: "CCAATCCA"
  PBM E-score: -0.0476

* * *

Target: Ste12 (UniProt P13574)
Assay: PBM E-score (8-mer binding enrichment) (E-score (-0.5 to 0.5)); higher = stronger / more preferred TF binding
Settings: protein concentration: 200 nM; construct: GST-DNA-binding domain
Over roughly 33,000 sequences, “E-score (-0.5 to 0.5)” has its median near -0.01; the highest 2% begin near 0.26. Shown is part of a subset that was picked to be rich in the highest values.

- residues: "ATCTTATA"
  test target: "Ste12 (UniProt P13574)"
  PBM E-score: 0.0647
- residues: "AGAAGAGC"
  test target: "Ste12 (UniProt P13574)"
  PBM E-score: -0.161
- residues: "CTCTTATA"
  test target: "Ste12 (UniProt P13574)"
  PBM E-score: 0.267
- residues: "TGTCACAA"
  test target: "Ste12 (UniProt P13574)"
  PBM E-score: 0.3
- residues: "GACAAACA"
  test target: "Ste12 (UniProt P13574)"
  PBM E-score: 0.0473
- residues: "CGTGGCGC"
  test target: "Ste12 (UniProt P13574)"
  PBM E-score: -0.1
- residues: "CGGTTTGC"
  test target: "Ste12 (UniProt P13574)"
  PBM E-score: 0.0736
- residues: "ATCTCAGC"
  test target: "Ste12 (UniProt P13574)"
  PBM E-score: -0.112
- residues: "CCGTCGCA"
  test target: "Ste12 (UniProt P13574)"
  PBM E-score: 0.176
- residues: "ACAAATTA"
  test target: "Ste12 (UniProt P13574)"
  PBM E-score: 0.263
- residues: "ACCCAGGT"
  test target: "Ste12 (UniProt P13574)"
  PBM E-score: -0.218
- residues: "AAAAATTA"
  test target: "Ste12 (UniProt P13574)"
  PBM E-score: 0.326
- residues: "AACGCTTA"
  test target: "Ste12 (UniProt P13574)"
  PBM E-score: -0.0484
- residues: "CACACTTC"
  test target: "Ste12 (UniProt P13574)"
  PBM E-score: 0.00873
- residues: "AGGTCAGA"
  test target: "Ste12 (UniProt P13574)"
  PBM E-score: -0.113
- residues: "CCAAATTA"
  test target: "Ste12 (UniProt P13574)"
  PBM E-score: 0.221

* * *

Molecular target: Ste12 (UniProt P13574)
Assay: PBM E-score (8-mer binding enrichment) (E-score (-0.5 to 0.5)); higher = stronger / more preferred TF binding
Conditions: protein concentration: 200 nM; construct: GST-DNA-binding domain
Over roughly 33,000 sequences, “E-score (-0.5 to 0.5)” has its median near -0.01; the highest 2% begin near 0.26. This excerpt belongs to a sample that is enriched for the highest values.
Values of PBM E-score greater than or equal to 0.02 map to yes (1); values below map to no (0).

- residues: "CTATCAAA"
  test target: "Ste12 (UniProt P13574)"
  answer label: "yes (1)"
- residues: "GTGCGCAC"
  test target: "Ste12 (UniProt P13574)"
  answer label: "yes (1)"
- residues: "GTAATTTA"
  test target: "Ste12 (UniProt P13574)"
  answer label: "yes (1)"
- residues: "CTTGCATA"
  test target: "Ste12 (UniProt P13574)"
  answer label: "no (0)"
- residues: "AACGCTAA"
  test target: "Ste12 (UniProt P13574)"
  answer label: "no (0)"
- residues: "CAATCTCC"
  test target: "Ste12 (UniProt P13574)"
  answer label: "no (0)"
- residues: "TCATCAAA"
  test target: "Ste12 (UniProt P13574)"
  answer label: "yes (1)"
- residues: "TGGCCCCA"
  test target: "Ste12 (UniProt P13574)"
  answer label: "no (0)"
- residues: "AAAACGAA"
  test target: "Ste12 (UniProt P13574)"
  answer label: "yes (1)"
- residues: "AATTTATC"
  test target: "Ste12 (UniProt P13574)"
  answer label: "yes (1)"
- residues: "CCATTTTC"
  test target: "Ste12 (UniProt P13574)"
  answer label: "yes (1)"
- residues: "AAACAACA"
  test target: "Ste12 (UniProt P13574)"
  answer label: "yes (1)"
- residues: "GTATCAAA"
  test target: "Ste12 (UniProt P13574)"
  answer label: "yes (1)"
- residues: "ATTGTGTA"
  test target: "Ste12 (UniProt P13574)"
  answer label: "yes (1)"
- residues: "ATAATTTG"
  test target: "Ste12 (UniProt P13574)"
  answer label: "yes (1)"
- residues: "ACCTTATG"
  test target: "Ste12 (UniProt P13574)"
  answer label: "yes (1)"
- residues: "CAACAACC"
  test target: "Ste12 (UniProt P13574)"
  answer label: "yes (1)"
- residues: "ACAATTAC"
  test target: "Ste12 (UniProt P13574)"
  answer label: "yes (1)"
- residues: "ACCATACG"
  test target: "Ste12 (UniProt P13574)"
  answer label: "no (0)"
- residues: "AATCTAGG"
  test target: "Ste12 (UniProt P13574)"
  answer label: "yes (1)"
- residues: "AATCAACA"
  test target: "Ste12 (UniProt P13574)"
  answer label: "yes (1)"
- residues: "ATTTTTCA"
  test target: "Ste12 (UniProt P13574)"
  answer label: "yes (1)"
- residues: "CTAGATTA"
  test target: "Ste12 (UniProt P13574)"
  answer label: "no (0)"
- residues: "ATCTGATG"
  test target: "Ste12 (UniProt P13574)"
  answer label: "yes (1)"
- residues: "AACTGTAA"
  test target: "Ste12 (UniProt P13574)"
  answer label: "yes (1)"
- residues: "AGCAGTAG"
  test target: "Ste12 (UniProt P13574)"
  answer label: "no (0)"
- residues: "GAGGTTAA"
  test target: "Ste12 (UniProt P13574)"
  answer label: "no (0)"
- residues: "ACAAATCA"
  test target: "Ste12 (UniProt P13574)"
  answer label: "yes (1)"
- residues: "TTAATTAA"
  test target: "Ste12 (UniProt P13574)"
  answer label: "yes (1)"
- residues: "TTAACTAA"
  test target: "Ste12 (UniProt P13574)"
  answer label: "yes (1)"
- residues: "CATTTATA"
  test target: "Ste12 (UniProt P13574)"
  answer label: "yes (1)"
- residues: "AATTTATA"
  test target: "Ste12 (UniProt P13574)"
  answer label: "yes (1)"
- residues: "ATTGTGTG"
  test target: "Ste12 (UniProt P13574)"
  answer label: "no (0)"
- residues: "CATTGACG"
  test target: "Ste12 (UniProt P13574)"
  answer label: "yes (1)"
- residues: "CACCACTC"
  test target: "Ste12 (UniProt P13574)"
  answer label: "no (0)"
- residues: "CCTTGTGC"
  test target: "Ste12 (UniProt P13574)"
  answer label: "no (0)"
- residues: "AAATCTGG"
  test target: "Ste12 (UniProt P13574)"
  answer label: "yes (1)"
- residues: "GTGCGCAA"
  test target: "Ste12 (UniProt P13574)"
  answer label: "no (0)"
- residues: "AGAGTCTC"
  test target: "Ste12 (UniProt P13574)"
  answer label: "no (0)"
- residues: "CGGTGAAA"
  test target: "Ste12 (UniProt P13574)"
  answer label: "yes (1)"
- residues: "CCCGATAG"
  test target: "Ste12 (UniProt P13574)"
  answer label: "yes (1)"
- residues: "ACAATTAA"
  test target: "Ste12 (UniProt P13574)"
  answer label: "yes (1)"
- residues: "AAAGAATC"
  test target: "Ste12 (UniProt P13574)"
  answer label: "yes (1)"
- residues: "ATTTTTCG"
  test target: "Ste12 (UniProt P13574)"
  answer label: "yes (1)"
- residues: "ACTATGCG"
  test target: "Ste12 (UniProt P13574)"
  answer label: "yes (1)"
- residues: "TGCATACA"
  test target: "Ste12 (UniProt P13574)"
  answer label: "no (0)"
- residues: "CTTGTGTA"
  test target: "Ste12 (UniProt P13574)"
  answer label: "yes (1)"
- residues: "ACCGTGAT"
  test target: "Ste12 (UniProt P13574)"
  answer label: "yes (1)"
- residues: "AAACAATT"
  test target: "Ste12 (UniProt P13574)"
  answer label: "yes (1)"
- residues: "TGATCAAA"
  test target: "Ste12 (UniProt P13574)"
  answer label: "yes (1)"
- residues: "GGCAAGCC"
  test target: "Ste12 (UniProt P13574)"
  answer label: "no (0)"
- residues: "CACTGAAA"
  test target: "Ste12 (UniProt P13574)"
  answer label: "yes (1)"
- residues: "GGGAGAAC"
  test target: "Ste12 (UniProt P13574)"
  answer label: "no (0)"
- residues: "CGTGTGAC"
  test target: "Ste12 (UniProt P13574)"
  answer label: "no (0)"
- residues: "GCATTTTA"
  test target: "Ste12 (UniProt P13574)"
  answer label: "yes (1)"
- residues: "ACTAGTCC"
  test target: "Ste12 (UniProt P13574)"
  answer label: "no (0)"
- residues: "CAAACGAA"
  test target: "Ste12 (UniProt P13574)"
  answer label: "yes (1)"
- residues: "CGCTTGCC"
  test target: "Ste12 (UniProt P13574)"
  answer label: "no (0)"
- residues: "TTAACGAA"
  test target: "Ste12 (UniProt P13574)"
  answer label: "yes (1)"
- residues: "GACTGTAA"
  test target: "Ste12 (UniProt P13574)"
  answer label: "no (0)"
- residues: "AGTGAACG"
  test target: "Ste12 (UniProt P13574)"
  answer label: "no (0)"
- residues: "CGCATGAC"
  test target: "Ste12 (UniProt P13574)"
  answer label: "no (0)"
- residues: "CATTTATC"
  test target: "Ste12 (UniProt P13574)"
  answer label: "yes (1)"
- residues: "AAGCAGAA"
  test target: "Ste12 (UniProt P13574)"
  answer label: "yes (1)"
- residues: "GGAAAATA"
  test target: "Ste12 (UniProt P13574)"
  answer label: "yes (1)"
- residues: "GAAACGAA"
  test target: "Ste12 (UniProt P13574)"
  answer label: "yes (1)"
- residues: "ATTAAAGC"
  test target: "Ste12 (UniProt P13574)"
  answer label: "yes (1)"
- residues: "TACTGATA"
  test target: "Ste12 (UniProt P13574)"
  answer label: "yes (1)"
- residues: "AACTTTAT"
  test target: "Ste12 (UniProt P13574)"
  answer label: "yes (1)"
- residues: "AAAACGAC"
  test target: "Ste12 (UniProt P13574)"
  answer label: "yes (1)"
- residues: "CGCCAAAA"
  test target: "Ste12 (UniProt P13574)"
  answer label: "yes (1)"
- residues: "AATCGAGG"
  test target: "Ste12 (UniProt P13574)"
  answer label: "yes (1)"
- residues: "CCCAGACC"
  test target: "Ste12 (UniProt P13574)"
  answer label: "no (0)"
